- Tested on: Si-Ha
- Measurement Description: Tata protocol cytotoxicity (SRB, 48 h), Si-Ha
- Format: cell-based, human
- Assay Conditions: cervix
Parameter Measured: GI50 (nM)
Report the value in nM with no unit label.

>>> number("COc1cc2c(cc1OCCCCCOc1ccc(-n3c(/C=C/c4ccccc4)nc4ccccc4c3=O)cc1)N=C[C@@H]1CCCN1C2=O [5m]")
2080
>>> number("COc1cc2c(cc1OCCCCOc1ccc(-n3c(C)nc4ccccc4c3=O)cc1)N=C[C@@H]1CCCN1C2=O [5c]")
1910
>>> number("COc1cc2c(cc1OCCCCOc1ccc(-n3c(/C=C/c4ccccc4)nc4ccccc4c3=O)cc1)N=C[C@@H]1CCCN1C2=O [5l]")
2190

Proceed to the following item.
q: Recorded GI50 of COc1cc2c(cc1OCCCOc1ccc(-n3c(/C=C/c4ccccc4)nc4ccccc4c3=O)cc1)N=C[C@@H]1CCCN1C2=O [5k] , please.
a: 2000

---

- Test system: KB
- Measurement Description: Tata protocol cytotoxicity (SRB, 48 h), KB
- Assay type: cell-based, human
- Assay Conditions: oral
Below, each entry is listed alongside its reported GI50.
Report the value in nM with no unit label.

Here are 3 compounds together with their reported answers.
>>> number("COc1cc2c(cc1OCCCCOc1ccc(-n3c(C)nc4ccccc4c3=O)cc1)N=C[C@@H]1CCCN1C2=O [5c]")
1980
>>> number("COc1cc2c(cc1OCCCCOc1ccc(-n3c(/C=C/c4ccccc4)nc4ccccc4c3=O)cc1)N=C[C@@H]1CCCN1C2=O [5l]")
2070
>>> number("COc1cc2c(cc1OCCCCCOc1ccc(-n3c(/C=C/c4ccccc4)nc4ccccc4c3=O)cc1)N=C[C@@H]1CCCN1C2=O [5m]")
2150

Proceed to the following item.
q: Recorded GI50 of COc1cc2c(cc1OCCCOc1ccc(-n3c(/C=C/c4ccccc4)nc4ccccc4c3=O)cc1)N=C[C@@H]1CCCN1C2=O [5k] , please.
a: 1780
